Reported pEC50 values for the following binders.
Molecular target: T1, mouse TREM1 (mouse, UniProt Q9JKE2 21-230)
T1 chain: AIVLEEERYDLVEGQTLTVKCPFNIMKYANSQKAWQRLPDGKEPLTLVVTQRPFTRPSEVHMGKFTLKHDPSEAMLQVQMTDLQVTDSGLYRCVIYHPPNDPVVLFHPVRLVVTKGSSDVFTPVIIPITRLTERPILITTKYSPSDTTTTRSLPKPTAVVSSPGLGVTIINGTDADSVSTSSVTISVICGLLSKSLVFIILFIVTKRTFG
Assay: cell binding
Note: pEC50 values are expressed as the negative base-10 logarithm of concentration in M.

Answered cases to consult:
[
  {
    "binder": "afucosylated Pi-9772 (antibody, V domains shown, afucosylated Fc glycan) VH: EVQLVESGGGLVQPGGSLRLSCAASGFDLSYSSMHWVRQAPGKGLEWVAYISPYSGYTSYADSVKGRFTISADTSKNTAYLQMNSLRAEDTAVYYCARHGSWSYGFSSGFDYWGQGTLVTVSS VL: DIQMTQSPSSLSASVGDRVTITCRASQSVSSAVAWYQQKPGKAPKLLIYSASSLYSGVPSRFSGSRSGTDFTLTISSLQPEDFATYYCQQYAYYYPITFGQGTKVEIKR",
    "pEC50": 8.20
  },
  {
    "binder": "Pi-9772 (antibody, V domains shown) VH: EVQLVESGGGLVQPGGSLRLSCAASGFDLSYSSMHWVRQAPGKGLEWVAYISPYSGYTSYADSVKGRFTISADTSKNTAYLQMNSLRAEDTAVYYCARHGSWSYGFSSGFDYWGQGTLVTVSS VL: DIQMTQSPSSLSASVGDRVTITCRASQSVSSAVAWYQQKPGKAPKLLIYSASSLYSGVPSRFSGSRSGTDFTLTISSLQPEDFATYYCQQYAYYYPITFGQGTKVEIKR",
    "pEC50": 8.55
  }
]

// below: pEC50 requested for another binder
## Task What measured pEC50 goes with Pi-4928 (antibody, V domains shown) VH: QVQLKESGPGLVQPSQTLSLTCTVSGFSITSSNVYWFRQPPGKGLEWMGNIWGDGSTDYNSSLKSRLTLSRDTSKNQVFLKINSLQSEDTATYFCTRSWEYYFDHWGQGVVVTVSS VL: DIVLTQSPALAVSPGQRATLSCRASQSVTLSNVNLMNWYQQKPGQQPKLLIYHASNLASGIPTRFSGSGSGTDFTLTIDPVQADDIAAYYCQQSGESPRTFGGGTKVELKR ?
## Result 8.85
